tested on: B. subtilis 168; experiment: Bliss interaction score (quartile over a dose matrix) (fitness difference); higher = more antagonism (negative = synergy);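 further: first quartile when negative (synergy) and third quartile when positive (antagonism)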
We use 0.03 as the dividing line for Bliss interaction score: on or above the line is Y, below is N.

Qu. For this compound, is measured Bliss interaction score 0.03 or higher? Clc1ccc(COC(Cn2ccnc2)c2ccc(Cl)cc2Cl)c(Cl)c1 (stereo not given) [Miconazole] + CN(N=O)C(=O)N[C@@H](C=O)[C@@H](O)[C@H](O)[C@H](O)CO [Streptozotocin]
Ans. Y

Qu. Dear colleague, could you confirm whether CC[C@H]1OC(=O)[C@H](C)[C@@H](O[C@H]2C[C@@](C)(OC)[C@@H](O)[C@H](C)O2)[C@H](C)[C@@H](O[C@@H]2O[C@H](C)C[C@H](N(C)C)[C@H]2O)[C@](C)(O)C[C@@H](C)CN(C)[C@H](C)[C@@H](O)[C@]1(C)O [Azithromycin] + CC(=O)NC[C@H]1CN(c2ccc(N3CCOCC3)c(F)c2)C(=O)O1 [Linezolid] has Bliss interaction score at or above 0.03?
Ans. N

Qu. API: above_or_equal(metric=Bliss interaction score, cutoff=0.03) for item Clc1ccc(COC(Cn2ccnc2)c2ccc(Cl)cc2Cl)c(Cl)c1 (stereo not given) [Miconazole] + C[n+]1ccc(-c2cc[n+](C)cc2)cc1 [Paraquat]
Ans. Y

Qu. Assess whether reported Bliss interaction score for CC1=C(C(=O)O)N2C(=O)[C@@H](NC(=O)[C@H](N)c3ccccc3)[C@H]2SC1 [Cephalexin] + COc1cccc2c1C(=O)c1c(O)c3c(c(O)c1C2=O)C[C@@](O)(C(=O)CO)C[C@@H]3O[C@H]1C[C@H](N)[C@H](O)[C@H](C)O1 [Doxorubicin] sits at 0.03 or higher.
Ans. Y

Qu. Decide: Bliss interaction score of Cc1onc(-c2ccccc2)c1C(=O)N[C@@H]1C(=O)N2[C@@H]1SC(C)(C)[C@@H]2C(=O)O [Oxacillin] + Cn1nnc(-c2ccc(-c3ccc(N4C[C@H](CO)OC4=O)cc3F)cn2)n1 [Tedizolid] >= 0.03?
Ans. N

Values from the supplement of paper PMC10627819
